target: p300 (Homo sapiens); construct: host or cells: A549 P300 HiBit cells; test: P300 degradation, HiBit technology in A549 P300 HiBit cells (2 h); format: cell-based; settings: A549, A549 P300 HiBit cells, 2 hrs post treatment
measure_name: Dmax

INSERT INTO results (compound, measure_name, observed_result) VALUES
  ('Cc1cc2c(N3CCCc4nc(-c5ccc(C(=O)NCC#Cc6cc7c([C@@H]8CCC(=O)NC8=O)cccc7o6)nc5)ncc43)cc(C3CCOCC3)cc2n(C)c1=O [Example B39]', 'Dmax', '> 80%'),
  ('CC(C)c1cc(-c2cccc3cc(-c4ccc(C(=O)NCC#Cc5cc6c(C7CCC(=O)NC7=O)coc6cc5C#N)nc4)ncc23)cc2c1n(C)c(=O)n2C (stereo not drawn) [Example A240]', 'Dmax', '40 to 59%'),
  ('CN1C(=O)C(C)(C)c2cc(-c3cccc4cc(-c5ccc(C(=O)NCC#Cc6ccc7occ(C8CCC(=O)NC8=O)c7c6)nc5)ncc34)ccc21 (stereo not drawn) [Example A130]', 'Dmax', '20 to 39%'),
  ('Cc1cc(-c2ncc3c(n2)CCCN3c2cccc3c2cc(C)c(=O)n3C)cnc1C(=O)NCC#Cc1ccc2occ(C3CCC(=O)NC3=O)c2c1 (stereo not drawn) [Example B45]', 'Dmax', '> 80%'),
  ('Cc1cc2c(N3CCCc4nc(-c5ccc(C(=O)NCC#Cc6cc7c(C8CCC(=O)NC8=O)cccc7o6)nc5)ncc43)cccc2n(C)c1=O (stereo not drawn) [Example B67]', 'Dmax', '> 80%'),
  ('[2H]C([2H])([2H])N(c1cnc(-c2cnc(C(=O)NCC#Cc3ccc4occ(C5CCC(=O)NC5=O)c4c3)c(C)c2)nc1)c1cc(C2CCOCC2)c2c(c1)n(C)c(=O)n2C (stereo not drawn) [Example A82]', 'Dmax', '> 80%');

====

molecular target: p300 (Homo sapiens, UniProt Q09472); construct: host or cells: A549 P300 HiBit cells; experiment: P300 degradation, HiBit technology in A549 P300 HiBit cells (2 h); type: cell-based; details: A549, A549 P300 HiBit cells, 2 hrs post treatment
Sequence (Q09472 whole entry): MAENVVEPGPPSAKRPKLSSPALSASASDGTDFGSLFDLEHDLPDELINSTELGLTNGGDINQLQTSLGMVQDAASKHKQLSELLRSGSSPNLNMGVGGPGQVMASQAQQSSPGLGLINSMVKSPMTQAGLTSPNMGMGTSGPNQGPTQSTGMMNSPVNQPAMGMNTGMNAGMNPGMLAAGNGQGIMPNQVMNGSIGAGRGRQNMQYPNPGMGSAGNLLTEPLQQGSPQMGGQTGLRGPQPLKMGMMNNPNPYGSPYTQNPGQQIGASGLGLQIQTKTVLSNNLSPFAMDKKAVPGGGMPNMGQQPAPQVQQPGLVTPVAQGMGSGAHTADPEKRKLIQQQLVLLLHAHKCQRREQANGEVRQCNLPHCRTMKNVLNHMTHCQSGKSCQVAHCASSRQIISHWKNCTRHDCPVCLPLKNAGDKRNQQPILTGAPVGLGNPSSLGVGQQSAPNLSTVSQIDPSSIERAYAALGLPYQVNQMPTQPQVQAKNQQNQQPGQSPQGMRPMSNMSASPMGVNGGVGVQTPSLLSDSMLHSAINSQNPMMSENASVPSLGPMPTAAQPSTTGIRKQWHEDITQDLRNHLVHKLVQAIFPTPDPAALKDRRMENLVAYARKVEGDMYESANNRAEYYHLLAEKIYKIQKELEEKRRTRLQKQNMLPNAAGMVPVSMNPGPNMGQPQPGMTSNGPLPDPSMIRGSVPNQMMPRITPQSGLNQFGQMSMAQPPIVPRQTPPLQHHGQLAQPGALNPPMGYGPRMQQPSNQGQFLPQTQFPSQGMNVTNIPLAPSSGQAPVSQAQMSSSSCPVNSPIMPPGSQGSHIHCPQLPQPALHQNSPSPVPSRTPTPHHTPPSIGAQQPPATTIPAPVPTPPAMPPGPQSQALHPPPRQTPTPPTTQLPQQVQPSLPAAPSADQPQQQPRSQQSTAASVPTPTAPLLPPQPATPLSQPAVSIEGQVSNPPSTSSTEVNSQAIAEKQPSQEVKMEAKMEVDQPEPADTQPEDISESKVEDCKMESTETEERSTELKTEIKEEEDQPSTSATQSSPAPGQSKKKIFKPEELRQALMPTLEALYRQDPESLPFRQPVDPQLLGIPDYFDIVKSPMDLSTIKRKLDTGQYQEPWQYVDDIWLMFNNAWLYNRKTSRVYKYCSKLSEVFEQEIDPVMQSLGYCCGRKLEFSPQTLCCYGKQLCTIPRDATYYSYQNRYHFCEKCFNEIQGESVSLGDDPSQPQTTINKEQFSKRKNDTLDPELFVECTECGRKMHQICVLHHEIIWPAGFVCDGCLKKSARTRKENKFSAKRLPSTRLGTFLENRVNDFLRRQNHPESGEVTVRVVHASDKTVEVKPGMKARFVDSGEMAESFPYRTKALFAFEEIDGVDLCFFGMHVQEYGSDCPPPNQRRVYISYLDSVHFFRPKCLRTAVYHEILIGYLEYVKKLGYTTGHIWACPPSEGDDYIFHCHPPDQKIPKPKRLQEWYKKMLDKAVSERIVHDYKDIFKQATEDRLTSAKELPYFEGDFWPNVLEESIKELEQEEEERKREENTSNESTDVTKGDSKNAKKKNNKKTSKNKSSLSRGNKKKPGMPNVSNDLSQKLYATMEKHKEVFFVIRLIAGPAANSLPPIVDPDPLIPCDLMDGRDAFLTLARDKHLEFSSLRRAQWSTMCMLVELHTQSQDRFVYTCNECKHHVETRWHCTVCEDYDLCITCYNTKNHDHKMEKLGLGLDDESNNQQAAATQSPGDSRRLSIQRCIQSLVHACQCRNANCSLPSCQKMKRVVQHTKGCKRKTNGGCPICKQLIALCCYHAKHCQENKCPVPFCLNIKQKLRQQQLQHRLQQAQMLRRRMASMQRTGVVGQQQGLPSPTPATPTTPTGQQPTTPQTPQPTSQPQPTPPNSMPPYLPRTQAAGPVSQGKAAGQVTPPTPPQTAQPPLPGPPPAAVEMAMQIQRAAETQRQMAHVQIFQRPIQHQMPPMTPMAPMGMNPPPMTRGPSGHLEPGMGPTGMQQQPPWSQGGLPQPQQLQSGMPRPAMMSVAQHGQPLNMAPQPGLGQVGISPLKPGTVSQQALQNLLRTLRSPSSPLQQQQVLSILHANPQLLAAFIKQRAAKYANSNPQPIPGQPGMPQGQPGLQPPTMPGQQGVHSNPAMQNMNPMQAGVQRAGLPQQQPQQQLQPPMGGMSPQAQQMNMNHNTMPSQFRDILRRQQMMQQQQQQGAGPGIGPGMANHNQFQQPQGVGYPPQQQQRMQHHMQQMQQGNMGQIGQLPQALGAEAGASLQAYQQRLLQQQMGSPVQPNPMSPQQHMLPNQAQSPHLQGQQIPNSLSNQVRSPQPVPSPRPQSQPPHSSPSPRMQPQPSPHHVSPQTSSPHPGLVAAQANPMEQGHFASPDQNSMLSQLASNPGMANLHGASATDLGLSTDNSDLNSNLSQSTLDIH
# key: entry, value: Dmax
measure_name: Dmax

INSERT INTO measurements (molecule, measure_name, observed_result) VALUES
  ('CN1CCN(c2ccc3c(c2)n(C)c(=O)n3C)c2cnc(-c3ccc(C(=O)NCC#Cc4cc5c(C6CCC(=O)NC6=O)nccc5o4)nc3)cc21 (centres unmarked)', 'Dmax', '> 80%'),
  ('Cc1cc2c(N3CCOc4cc(-c5ccc(C(=O)NCC#Cc6ccc7occ(C8CCC(=O)NC8=O)c7c6)nc5)ncc43)cc(C3CCOCC3)cc2n(C)c1=O (centres unmarked)', 'Dmax', '> 80%'),
  ('Cc1cc(-c2ccc(N(c3cc(C(C)C)c4c(c3)n(C)c(=O)n4C)C(F)(F)F)cn2)cnc1C(=O)NCC#Cc1cccc(NC2CCC(=O)NC2=O)c1 (centres unmarked)', 'Dmax', '60 to 79%'),
  ('Cc1cc2c(-c3cccc4cc(-c5ccc(C(=O)NCC#Cc6ccc7occ(C8CCC(=O)NC8=O)c7c6)nc5)ncc34)nc(C(C)C)cc2n(C)c1=O (centres unmarked)', 'Dmax', '> 80%'),
  ('Cc1cc2c(N3CCCc4nc(-c5ccc(C(=O)NCC#Cc6nc7cccc(C8CCC(=O)NC8=O)n7n6)nc5)ncc43)cc(C3CCOCC3)cc2n(C)c1=O (centres unmarked)', 'Dmax', '20 to 39%'),
  ('COc1cc(N2CCOc3cc(-c4ccc(C(=O)NCC#Cc5ccc6occ(C7CCC(=O)NC7=O)c6c5)nc4)c(F)cc32)c2cc(C)c(=O)n(C)c2c1 (centres unmarked)', 'Dmax', '> 80%'),
  ('Cc1cc2c(N3CCCc4nc(-c5ccc(C(=O)NCC#Cc6ccc7occ(C8CCC(=O)NC8=O)c7c6)nc5)ncc43)nc(N3CC(F)C3)cc2n(C)c1=O (centres unmarked)', 'Dmax', '60 to 79%'),
  ('Cn1c(=O)n(C)c2c(C3CC3)cc(-c3cccc4cc(-c5ccc(C(=O)NCC#Cc6cc7c(C8CCC(=O)NC8=O)cccc7o6)nc5)ncc34)cc21 (centres unmarked)', 'Dmax', '> 80%'),
  ('[2H]C1COCCC1([2H])c1cc(N2CCCc3nc(-c4ccc(C(=O)NCC#Cc5cc6c(C7CCC(=O)NC7=O)cccc6o5)nc4)ncc32)c2cc(C)c(=O)n(C)c2c1 (centres unmarked)', 'Dmax', '> 80%'),
  ('Cc1oc2ccc(C#CCNC(=O)c3ccc(-c4cc5cccc(-c6cc(C(C)C)c7c(c6)n(C)c(=O)n7C)c5cn4)cn3)cc2c1C1CCC(=O)NC1=O (centres unmarked)', 'Dmax', '> 80%'),
  ('Cc1cc(-c2ncc3c(n2)CCCN3c2cc(C3CCOCC3)cc3c2cc(C)c(=O)n3C)cnc1C(=O)NCC#Cc1ccc2occ(C3CCC(=O)NC3=O)c2c1 (centres unmarked)', 'Dmax', '60 to 79%');

====

molecular target: p300 (Homo sapiens, UniProt Q09472); construct: host or cells: A549 P300 HiBit cells; test: P300 degradation, HiBit technology in A549 P300 HiBit cells (2 h); type: cell-based; conditions: A549, A549 P300 HiBit cells, 2 hrs post treatment
measure_name: Dmax

INSERT INTO assay_data (compound, measure_name, observed_result) VALUES
  ('CC(C)c1cc(-c2cccc3cc(-c4ccc(C(=O)NCC#Cc5cc(N(C)C)c6cnn(C7CCC(=O)NC7=O)c6c5)nc4)ncc23)cc2c1n(C)c(=O)n2C (stereo not drawn)', 'Dmax', '60 to 79%'),
  ('Cc1cc2c(N3CCCc4nc(-c5ccc(C(=O)NCC#Cc6ccc7occ(C8CCC(=O)NC8=O)c7c6)nc5)ncc43)nc(N3CC4(COC4)C3)cc2n(C)c1=O (stereo not drawn)', 'Dmax', '60 to 79%'),
  ('COc1cc(-c2cnc(C(=O)NCC#Cc3cc4c(C5CCC(=O)NC5=O)cccc4o3)c(C)c2)ncc1N(C)c1cc(C2CCOCC2)c2c(c1)n(C)c(=O)n2C (stereo not drawn)', 'Dmax', '20 to 39%'),
  ('CC(C)c1cc(-c2cccc3cc(-c4ccc(C(=O)NCC#Cc5ccc6c(c5)nnn6C5CCC(=O)NC5=O)nc4)ncc23)cc2c1n(C)c(=O)n2C (stereo not drawn)', 'Dmax', '< 20%'),
  ('CC(C)c1cc(-c2cccc3cc(-c4ccc(C(=O)NCC#Cc5cc(C#N)c6cnn(C7CCC(=O)NC7=O)c6c5)nc4)ncc23)cc2c1n(C)c(=O)n2C (stereo not drawn)', 'Dmax', '60 to 79%'),
  ('Cc1cc(-c2ccc(N(C)c3cc(C(C)C)c4c(c3)n(C)c(=O)n4C)cc2C(F)F)cnc1C(=O)NCC#Cc1cccc(NC2CCC(=O)NC2=O)c1 (stereo not drawn)', 'Dmax', '> 80%');

====

target: CBP (Homo sapiens); construct: host or cells: A549 CBP HiBit cells; experiment: CBP degradation, HiBit technology in A549 CBP HiBit cells (24 h); type: cell-based; settings: 24 hrs post treatment
Sequence (Q92793 whole entry): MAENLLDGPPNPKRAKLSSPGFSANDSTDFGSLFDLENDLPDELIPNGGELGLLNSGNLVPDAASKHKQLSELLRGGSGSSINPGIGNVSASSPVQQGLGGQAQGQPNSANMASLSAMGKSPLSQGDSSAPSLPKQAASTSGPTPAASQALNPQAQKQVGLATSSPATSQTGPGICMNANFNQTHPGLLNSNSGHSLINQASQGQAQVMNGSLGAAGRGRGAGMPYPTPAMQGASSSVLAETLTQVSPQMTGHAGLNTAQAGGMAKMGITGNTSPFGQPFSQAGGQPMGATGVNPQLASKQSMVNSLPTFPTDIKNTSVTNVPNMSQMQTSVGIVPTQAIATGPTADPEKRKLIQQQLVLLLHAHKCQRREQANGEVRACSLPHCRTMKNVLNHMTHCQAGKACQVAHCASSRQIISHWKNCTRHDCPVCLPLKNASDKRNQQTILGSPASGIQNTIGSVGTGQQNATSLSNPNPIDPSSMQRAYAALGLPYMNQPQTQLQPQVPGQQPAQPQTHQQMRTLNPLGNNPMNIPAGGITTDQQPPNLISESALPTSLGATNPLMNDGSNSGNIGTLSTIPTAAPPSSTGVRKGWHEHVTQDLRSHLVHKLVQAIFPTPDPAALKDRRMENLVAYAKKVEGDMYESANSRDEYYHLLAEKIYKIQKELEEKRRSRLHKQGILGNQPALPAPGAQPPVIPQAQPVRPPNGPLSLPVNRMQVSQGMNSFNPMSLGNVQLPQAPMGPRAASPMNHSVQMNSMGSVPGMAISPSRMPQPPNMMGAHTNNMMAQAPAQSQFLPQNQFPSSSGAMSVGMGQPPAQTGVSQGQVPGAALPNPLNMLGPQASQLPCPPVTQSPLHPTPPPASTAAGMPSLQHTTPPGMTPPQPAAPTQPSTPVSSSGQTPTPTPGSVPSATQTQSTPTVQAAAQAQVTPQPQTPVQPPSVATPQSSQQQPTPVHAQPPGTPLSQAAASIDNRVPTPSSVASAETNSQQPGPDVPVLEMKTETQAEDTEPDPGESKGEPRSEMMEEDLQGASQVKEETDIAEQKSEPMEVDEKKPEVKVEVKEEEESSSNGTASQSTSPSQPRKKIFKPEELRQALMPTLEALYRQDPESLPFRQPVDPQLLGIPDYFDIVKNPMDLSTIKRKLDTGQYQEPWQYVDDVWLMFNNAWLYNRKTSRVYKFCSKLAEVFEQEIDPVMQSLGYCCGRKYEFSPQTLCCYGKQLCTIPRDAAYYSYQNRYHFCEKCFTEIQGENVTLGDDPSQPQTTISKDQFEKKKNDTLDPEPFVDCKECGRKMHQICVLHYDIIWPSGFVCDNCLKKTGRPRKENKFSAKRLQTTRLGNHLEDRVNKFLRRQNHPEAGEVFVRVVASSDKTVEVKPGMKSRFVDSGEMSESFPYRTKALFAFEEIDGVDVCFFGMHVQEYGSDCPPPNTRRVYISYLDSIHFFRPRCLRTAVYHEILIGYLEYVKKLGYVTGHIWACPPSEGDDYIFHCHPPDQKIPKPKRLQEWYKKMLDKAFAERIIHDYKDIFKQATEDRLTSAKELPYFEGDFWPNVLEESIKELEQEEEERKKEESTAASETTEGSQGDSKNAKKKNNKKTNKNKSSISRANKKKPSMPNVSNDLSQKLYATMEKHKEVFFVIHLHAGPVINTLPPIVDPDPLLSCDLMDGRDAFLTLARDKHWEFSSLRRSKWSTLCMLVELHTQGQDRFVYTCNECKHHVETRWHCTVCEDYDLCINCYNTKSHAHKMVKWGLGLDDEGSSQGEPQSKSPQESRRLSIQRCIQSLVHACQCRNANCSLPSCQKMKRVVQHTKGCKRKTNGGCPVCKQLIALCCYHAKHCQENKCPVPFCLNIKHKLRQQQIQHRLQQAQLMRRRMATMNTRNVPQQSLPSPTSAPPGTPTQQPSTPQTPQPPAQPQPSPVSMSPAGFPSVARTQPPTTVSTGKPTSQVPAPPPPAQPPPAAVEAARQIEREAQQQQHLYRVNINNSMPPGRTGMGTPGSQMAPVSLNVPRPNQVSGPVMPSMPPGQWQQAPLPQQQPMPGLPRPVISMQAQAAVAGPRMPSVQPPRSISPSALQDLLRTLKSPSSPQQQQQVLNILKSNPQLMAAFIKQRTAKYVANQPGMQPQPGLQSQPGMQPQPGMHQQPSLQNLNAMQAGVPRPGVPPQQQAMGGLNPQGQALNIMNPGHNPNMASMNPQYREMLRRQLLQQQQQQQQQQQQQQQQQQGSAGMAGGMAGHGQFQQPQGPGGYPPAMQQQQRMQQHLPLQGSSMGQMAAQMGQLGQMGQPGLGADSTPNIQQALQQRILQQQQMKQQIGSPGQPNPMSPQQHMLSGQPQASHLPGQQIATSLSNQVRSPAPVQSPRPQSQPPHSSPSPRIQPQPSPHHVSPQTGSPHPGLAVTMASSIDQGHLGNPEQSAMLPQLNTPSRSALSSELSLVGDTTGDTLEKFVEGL
measure_name: Dmax

INSERT INTO results (molecule, observed_result) VALUES
  ('Cc1cc(-c2ncc3c(n2)OCCN3c2ccc3c(c2)n(C)c(=O)n3C)cnc1C(=O)NCC#Cc1cc2ccnc(C3CCC(=O)NC3=O)c2o1 (stereo not drawn)', '< 20%'),
  ('Cc1cc2c(N3CCCc4nc(-c5ccc(C(=O)NCC#Cc6ccc7occ(C8CCC(=O)NC8=O)c7c6)nc5)ncc43)nc(N3CCOCC3)cc2n(C)c1=O (stereo not drawn)', '< 20%'),
  ('Cc1cc(N2CCOc3nc(-c4ccc(C(=O)NCC#Cc5ccc6occ(C7CCC(=O)NC7=O)c6c5)nc4)ncc32)cc2c1n(C)c(=O)n2C (stereo not drawn)', '< 20%');

====

biological target: p300 (Homo sapiens, UniProt Q09472); construct: host or cells: A549 P300 HiBit cells; assay: P300 degradation, HiBit technology in A549 P300 HiBit cells (2 h); assay type: cell-based; settings: A549, A549 P300 HiBit cells, 2 hrs post treatment
# key: entry, value: Dmax
measure_name: Dmax

INSERT INTO results (molecule, observed_result) VALUES
  ('Cc1cc(-c2ncc(N(C)c3cc(C4CCN(C)CC4)c4c(c3)n(C)c(=O)n4C)cn2)cnc1C(=O)NCC#Cc1ccc2occ(C3CCC(=O)NC3=O)c2c1 (centres unmarked)', '> 80%'),
  ('Cc1cc2c(N3CCCc4nc(-c5ccc(C(=O)NCC#Cc6cc7c(C89CC(C8)C(=O)NC9=O)cccc7o6)nc5)ncc43)cc(C3CCOCC3)cc2n(C)c1=O', '< 20%'),
  ('CC(C)c1cc(-c2cccc3cc(-c4ccc(C(=O)NCC#Cc5ccc6cnn(C7CCC(=O)NC7=O)c6c5Cl)nc4)ncc23)cc2c1n(C)c(=O)n2C (centres unmarked)', '> 80%'),
  ('Cn1c(=O)n(C)c2c(N3CCOCC3)cc(N3CCCc4nc(-c5ccc(C(=O)NCC#Cc6ccc7occ(C8CCC(=O)NC8=O)c7c6)nc5)ncc43)cc21 (centres unmarked)', '> 80%'),
  ('Cn1c(=O)n(C)c2c(N3C4COCC3C4)nc(-c3cccc4cc(-c5ccc(C(=O)NCC#Cc6ccc7occ(C8CCC(=O)NC8=O)c7c6)nc5)ncc34)cc21 (centres unmarked)', '> 80%');

Data origin, for the record: patent US20250114345A1
